Each entry below lists one item and its recorded IC50 value.
STUDY_TARGET: HLA-DRB5*01:01 (Homo sapiens, UniProt P01903+Q30154)
Construct: Human leukocyte antigen-DR molecules were immunopurified from homozygous EBV B lymphoblastoid cells; endogenous in cells
RUN_DESCRIPTION: biochemical
Format: binding
EXPERIMENTAL_SETUP: […]; mean of at least two independent experiments; read-out: IC50 DRB5*0101
Where a SMILES comes first, the peptide text is derived from it. [ ]: non-standard residue; d: D form. Aib = CC(C)(N)C(=O)O
QUANTITY: IC50 (nM)

{"MOLECULE": "CC(C)C[C@H](NC(=O)[C@@H](NC(=O)[C@H](CC(N)=O)NC(=O)[C@H](CCC(N)=O)NC(=O)[C@H](CCCCN)NC(=O)[C@@H](NC(=O)[C@H](Cc1ccc(O)cc1)NC(=O)[C@H](CCCCN)NC(=O)[C@@H]1CCCN1)C(C)C)[C@@H](C)O)C(=O)NC(C)(C)C(=O)N[C@@H](CC(C)C)C(=O)N[C@@H](C)C(=O)N[C@H](C(=O)O)[C@@H](C)O", "QUANTITY": "IC50", "UNIT_TAG": "nM", "MEASURED_VALUE": 5000}
{"MOLECULE": "CC(C)C[C@H](NC(=O)[C@H](CCCCN)NC(=O)[C@H](CC(C)C)NC(=O)[C@@H](NC(=O)C(C)(C)NC(=O)[C@H](CCC(N)=O)NC(=O)[C@H](CCCCN)NC(=O)[C@@H](NC(=O)[C@H](Cc1ccc(O)cc1)NC(=O)[C@H](CCCCN)NC(=O)[C@@H]1CCCN1)C(C)C)[C@@H](C)O)C(=O)N[C@@H](C)C(=O)N[C@H](C(=O)O)[C@@H](C)O [Aib7] (H-PKYVKQ[Aib]TLKLAT-OH)", "QUANTITY": "IC50", "UNIT_TAG": "nM", "MEASURED_VALUE": 900}
{"MOLECULE": "CC(C)C[C@H](NC(=O)[C@@H](NC(=O)[C@H](CC(N)=O)NC(=O)[C@H](CCC(N)=O)NC(=O)[C@H](CCCCN)NC(=O)[C@@H](NC(=O)[C@H](Cc1ccc(O)cc1)NC(=O)[C@H](CCCCN)NC(=O)[C@@H]1CCCN1)C(C)C)[C@@H](C)O)C(=O)N[C@@H](CCCCN)C(=O)NC(C)(C)C(=O)N[C@@H](C)C(=O)N[C@H](C(=O)O)[C@@H](C)O", "QUANTITY": "IC50", "UNIT_TAG": "nM", "MEASURED_VALUE": 95}

---

Recorded pIC50 by entry
STUDY_TARGET: HLA-DRB1*01:01 (Homo sapiens, UniProt P01903+P01911, A100R/D57E/F55L/F60I/F76Y/I96L/L162R/M171V/P40L/Q125E/R42F/V115G/Y59C)
Construct: Human leukocyte antigen-DR molecules were immunopurified from homozygous EBV B lymphoblastoid cells; endogenous in cells
RUN_DESCRIPTION: biochemical
Assay type: binding
EXPERIMENTAL_SETUP: […]; mean of at least two independent experiments; read-out: IC50 DRB1*0101
pIC50: −log10 of the molar value. Where a SMILES comes first, the peptide text is derived from it. [ ]: non-standard residue; d: D form. Aib = CC(C)(N)C(=O)O
QUANTITY: pIC50

{"COMPOUND": "CC(C)C[C@H](NC(=O)[C@H](CCCCN)NC(=O)[C@H](CC(C)C)NC(=O)[C@@H](NC(=O)[C@H](CC(N)=O)NC(=O)[C@H](CCC(N)=O)NC(=O)[C@H](CCCCN)NC(=O)[C@@H](NC(=O)CN(Cc1ccc(O)cc1)C(=O)[C@H](CCCCN)NC(=O)[C@@H]1CCCN1)C(C)C)[C@@H](C)O)C(=O)N[C@@H](C)C(=O)N[C@H](C(=O)O)[C@@H](C)O", "QUANTITY": "pIC50", "MEASURED_VALUE": 5.40}
{"COMPOUND": "CC(C)C[C@H](NC(=O)[C@@H](NC(=O)[C@H](CC(N)=O)NC(=O)[C@H](CCC(N)=O)NC(=O)[C@H](CCCCN)NC(=O)[C@@H](NC(=O)[C@H](Cc1ccc(O)cc1)NC(=O)[C@H](CCCCN)NC(=O)[C@@H]1CCCN1)C(C)C)[C@@H](C)O)C(=O)NC(C)(C)C(=O)N[C@@H](CC(C)C)C(=O)N[C@@H](C)C(=O)N[C@H](C(=O)O)[C@@H](C)O", "QUANTITY": "pIC50", "MEASURED_VALUE": 8.05}
{"COMPOUND": "CC(C)C[C@H](NC(=O)[C@H](CCCCN)NC(=O)[C@H](CC(C)C)NC(=O)[C@@H](NC(=O)[C@H](CC(N)=O)NC(=O)[C@H](CCC(N)=O)NC(=O)[C@H](CCCCN)NC(=O)[C@@H](NC(=O)[C@H](Cc1ccc(O)cc1)NC(=O)[C@H](CCCCN)NC(=O)[C@@H]1CCCN1)C(C)C)[C@@H](C)O)C(=O)NC(C)(C)C(=O)N[C@H](C(=O)O)[C@@H](C)O", "QUANTITY": "pIC50", "MEASURED_VALUE": 9.15}
{"COMPOUND": "CC(C)C[C@H](NC(=O)[C@H](CCCCN)NC(=O)[C@H](CC(C)C)NC(=O)[C@@H](NC(=O)[C@H](CC(N)=O)NC(=O)[C@H](CCC(N)=O)NC(=O)[C@H](CCCCN)NC(=O)[C@@H](NC(=O)[C@H](Cc1ccc(O)cc1)NC(=O)[C@H](CCCCN)NC(=O)[C@@H]1CCCN1)C(C)C)[C@@H](C)O)C(=O)N[C@@H](C)C(=O)NC(C)(C)C(=O)O", "QUANTITY": "pIC50", "MEASURED_VALUE": 9.70}
{"COMPOUND": "CC(C)C[C@H](NC(=O)[C@H](CCCCN)NC(=O)[C@H](CC(C)C)NC(=O)C(C)(C)NC(=O)[C@H](CC(N)=O)NC(=O)[C@H](CCC(N)=O)NC(=O)[C@H](CCCCN)NC(=O)[C@@H](NC(=O)[C@H](Cc1ccc(O)cc1)NC(=O)[C@H](CCCCN)NC(=O)[C@@H]1CCCN1)C(C)C)C(=O)N[C@@H](C)C(=O)N[C@H](C(=O)O)[C@@H](C)O", "QUANTITY": "pIC50", "MEASURED_VALUE": 9.10}
{"COMPOUND": "CC(C)C[C@H](NC(=O)[C@H](CCCCN)NC(=O)[C@H](CC(C)C)NC(=O)[C@@H](NC(=O)[C@H](CC(N)=O)NC(=O)[C@H](CCC(N)=O)NC(=O)[C@H](CCCCN)NC(=O)[C@@H](NC(=O)[C@H](Cc1ccc(O)cc1)NC(=O)C(C)(C)NC(=O)[C@@H]1CCCN1)C(C)C)[C@@H](C)O)C(=O)N[C@@H](C)C(=O)N[C@H](C(=O)O)[C@@H](C)O [Aib2] (H-P[Aib]YVKQNTLKLAT-OH)", "QUANTITY": "pIC50", "MEASURED_VALUE": 8.10}
